# experiment: Saturated solubility of compound in ethanol
# Assay type: physicochemical
readout.label: solubility thermodynamic (µg/mL)

(1) CS(=O)(=O)O.Cc1nc(N(C)C(=O)Cc2ccc(-c3ccccn3)cc2)sc1S(N)(=O)=O [PRITELIVIR MESYLATE]
(2) Cc1nc(N(C)C(=O)Cc2ccc(-c3ccccn3)cc2)sc1S(N)(=O)=O [PRITELIVIR]
Q) Form: Entry with minimum solubility thermodynamic (choose one): 1 / 2 I would appreciate it if you answered with the label of your choice.
A) 2

----------
# experiment: Saturated solubility of compound in transcutol p
# Format: physicochemical
readout.label: solubility thermodynamic (mg/mL)

(a) Cc1nc(N(C)C(=O)Cc2ccc(-c3ccccn3)cc2)sc1S(N)(=O)=O [PRITELIVIR]
(b) CS(=O)(=O)O.Cc1nc(N(C)C(=O)Cc2ccc(-c3ccccn3)cc2)sc1S(N)(=O)=O [PRITELIVIR MESYLATE]
Q) Form: Entry with minimum solubility thermodynamic (choose one): a / b I would appreciate it if you answered with the label of your choice.
A) b

----------
# experiment: Saturated solubility of compound in crodamol-GTC
# Format: physicochemical
readout.label: solubility thermodynamic (µg/mL)
Provide the reading as a plain figure in µg/mL.

Q) Can you look up the measured solubility thermodynamic of Cc1nc(N(C)C(=O)Cc2ccc(-c3ccccn3)cc2)sc1S(N)(=O)=O for me?
A) 200

----------
# experiment: Saturated solubility of compound in buffer at pH 7
# Type: physicochemical
readout.label: solubility thermodynamic (µg/mL)
Provide the reading as a plain figure in µg/mL.

Q) Can you look up the measured solubility thermodynamic of Cc1nc(N(C)C(=O)Cc2ccc(-c3ccccn3)cc2)sc1S(N)(=O)=O for me?
A) 100

----------
# experiment: Saturated solubility of compound in buffer at pH 4.5
# Assay type: physicochemical
readout.label: solubility (µg/mL)

(A) Cc1nc(N(C)C(=O)Cc2ccc(-c3ccccn3)cc2)sc1S(N)(=O)=O
(B) CS(=O)(=O)O.Cc1nc(N(C)C(=O)Cc2ccc(-c3ccccn3)cc2)sc1S(N)(=O)=O [PRITELIVIR MESYLATE]
Q) Form: Entry with minimum solubility (choose one): A / B I would appreciate it if you answered with the label of your choice.
A) A
(A: 100 µg/mL, B: 400 µg/mL)

----------
# experiment: Saturated solubility of compound in water
# Format: physicochemical
# condition.parameters: water; read-out: solubility
readout.label: solubility (µg/mL)
Provide the reading as a plain figure in µg/mL.

Q) Can you look up the measured solubility of CS(=O)(=O)O.Cc1nc(N(C)C(=O)Cc2ccc(-c3ccccn3)cc2)sc1S(N)(=O)=O [PRITELIVIR MESYLATE] for me?
A) 1200

----------
# experiment: Saturated solubility of compound in isopropyl myristate
# Format: physicochemical
readout.label: solubility thermodynamic (µg/mL)
Provide the reading as a plain figure in µg/mL.

Q) Can you look up the measured solubility thermodynamic of Cc1nc(N(C)C(=O)Cc2ccc(-c3ccccn3)cc2)sc1S(N)(=O)=O [PRITELIVIR] for me?
A) 100

----------
# experiment: Saturated solubility of compound in isopropanol
# Format: physicochemical
readout.label: solubility thermodynamic (µg/mL)
Provide the reading as a plain figure in µg/mL.

Q) Can you look up the measured solubility thermodynamic of Cc1nc(N(C)C(=O)Cc2ccc(-c3ccccn3)cc2)sc1S(N)(=O)=O for me?
A) 400

----------
# experiment: Saturated solubility of compound in oleyl-alcohol
# Type: physicochemical
readout.label: solubility thermodynamic (µg/mL)
Provide the reading as a plain figure in µg/mL.

Q) Can you look up the measured solubility thermodynamic of Cc1nc(N(C)C(=O)Cc2ccc(-c3ccccn3)cc2)sc1S(N)(=O)=O for me?
A) 100
